Test system: intracellular proteome of ENR+CD and ENR organoids
Assay: LC-MS/MS TMT proteomics of ENR+CD versus ENR organoids
Format: cell-based, C57BL/6 mice
Details: up = enriched in ENR+CD, down = enriched in ENR; FDR<0.05 and log fold change cut-off
Text: Because PCs are highly secretory, protein-rich cells, Applicants sought to assess the total intracellular proteome between conditions through liquid chromatography mass spectrometry (LC-MS/MS)-based proteomics. Applicants quantified relative protein abundance across eight samples using isobaric mass tag labeling from four ENR and four ENR+CD samples (M1-1 through M2-2, first digit denotes biological donor, second digit denotes technical replicate) (FIG. 3A). […]
readout kind: change

O88310 (protein, UniProt O88310 1-313, looked up, full-length) MTQLGFLLFIMVATRGCSAAEENLDTNRWGNSFFSSLPRSCKEIKQEHTKAQDGLYFLRTKNGVIYQTFCDMTTAGGGWTLVASVHENNMRGKCTVGDRWSSQQGNRADYPEGDGNWANYNTFGSAEAATSDDYKNPGYFDIQAENLGIWHVPNKSPLHNWRKSSLLRYRTFTGFLQHLGHNLFGLYKKYPVKYGEGKCWTDNGPALPVVYDFGDARKTASYYSPSGQREFTAGYVQFRVFNNERAASALCAGVRVTGCNTEHHCIGGGGFFPEGNPVQCGDFASFDWDGYGTHNGYSSSRKITEAAVLLFYR | up
